Tested on: ABL1(M351T)-phosphorylated
Settings: Compound Concentration (nM):1000;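 also: KINOMEscan scanMAX binding as percent activity remaining versus control; lower means stronger binding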
Would you kindly list Percent Control for each of these molecules?
Your answer is read as %, so omit the unit and give the number.

Sample Nc1ncnc2occ(-c3ccc(NC(=O)Nc4cc(C(F)(F)F)ccc4F)cc3)c12 [GW770249X] ; Percent Control observed: 45

Lookup result for COc1cccc(-n2ncc3c(N/N=C/c4ccncc4)ncnc32)c1 [GW784752X] ; measured Percent Control: 0

Form field Percent Control, entry CN1CCN(C(=O)c2ccc(NC(=O)Nc3ccc(N(C)c4ccnc(Nc5ccc(CS(C)(=O)=O)cc5)n4)cc3)cc2)CC1.Cl [GW830263A] : 20

Recorded Percent Control (molecule O=C1Nc2ccc(C(=O)c3ccco3)cc2C1=Cc1cc(Cl)c(O)c(Cl)c1 [GW406108X] ): 70

For CC1=C(C(=O)Nc2ccc3[nH]ncc3c2)C(c2ccc(Cl)c(Cl)c2)CC(=O)N1 (centres unmarked) [GSK299115A] the molecule record lists Percent Control as 87

The reported Percent Control of the molecule COc1ccc2cc(-c3c(-c4ccncc4)nc(-c4ccc(S(C)(=O)=O)cc4C)n3C)ccc2c1 was 81

In plain terms, CN(C)CCNC(=O)Nc1ccc(N(C)c2ccnc(Nc3ccc(CS(C)(=O)=O)cc3)n2)cc1.Cl [GW830900A] has a documented Percent Control of 73

The value of Percent Control measured for the molecule NS(=O)(=O)c1ccc(Nc2ncc(-c3ccccc3)o2)cc1 [GW572399X] turned out to be 83

----------
Test system: NEK2
Conditions: Compound Concentration (nM):1000
Task for the reader: assign each of the following compounds its reported Percent Control.
Reply numerically in %, unit not repeated.

For CCc1ccc(Oc2nccc(-c3c(-c4ccc(F)cc4)ncn3C3CCNCC3)n2)cc1 [SB-242719] the compound record lists Percent Control as 96

// sample COc1ccc2c(-c3ccnc(Nc4cccc(OC(F)(F)F)c4)n3)cnn2n1 [GW810372X] , its Percent Control was 100

For record COc1cc(C=NNc2ncnc3c2cnn3-c2ccccc2)ccc1O [GW513184X] the listed Percent Control is 100

Percent Control for Cl.O=S1CCN(Cc2ccc(-c3ccc4ncnc(Nc5ccc(OCc6ccccc6)c(F)c5)c4c3)o2)CC1 [GW576924A] is 100

Value of measured Percent Control for the entry CCn1c(-c2nonc2N)nc2c(C#CC(C)(C)O)nc(OCCNC)cc21.Cl [GSK949675] : 100

Documented Percent Control of O=C1Nc2ccc(C(=O)c3ccco3)cc2C1=Cc1cc(Cl)c(O)c(Cl)c1 [GW406108X] : 83

// Percent Control lookup, compound = NS(=O)(=O)c1ccc(Nc2ncc(-c3ccccc3)o2)cc1 [GW572399X] , result: 100

Lookup result for COc1cc(/C=N/Nc2ncnc3[nH]ncc23)ccc1O [GW578748X] ; measured Percent Control: 100

// field: Percent Control; key: COc1cc2ncn(-c3cc(O[C@H](C)c4ccccc4Cl)c(C(N)=O)s3)c2cc1OC [GSK237701A] ; value = 3.7

----------
Tested on: PLK2
Settings: Compound Concentration (nM):1000
readout.type: Percent Control
Reply with a number, then the unit it belongs to.

The compound COc1ccc2[nH]c3c4[nH]c5ccc(OC)cc5c4c4c(c3c2c1)C(=O)NC4=O [GW296115X] showed Percent Control equal to 95%

Data point: Nc1ncnc2occ(-c3ccc(NC(=O)Nc4cc(C(F)(F)F)ccc4F)cc3)c12 [GW770249X] ; Percent Control = 1.9%

The compound COc1cc(C=NNc2ncnc3c2cnn3-c2ccccc2)ccc1O [GW513184X] showed Percent Control equal to 37%

Item: COc1cccc(-n2ncc3c(N/N=C/c4ccncc4)ncnc32)c1 [GW784752X] | Percent Control: 94%
